Data provenance: ChEMBL document CHEMBL4834399

assay: Tmax in Sprague-Dawley rat plasma at 9.6 mg/kg, po administered as OPMS liquid formulation measured for 24 hrs by UPLC-MS/MS analysis; assay type: ADME, organism-based
measurement-name: Tmax (h)
Just the number in h, nothing appended.

Exercise: Would you kindly share the measured Tmax for CC[C@@H]1CN2CCc3c([nH]c4cccc(OC)c34)[C@@H]2C[C@@H]1/C(=C\OC)C(=O)OC ?
Solution: 3.1

---

test: AUC(0 to 24 hrs) in Sprague-Dawley rat plasma at 9.6 mg/kg, po administered as OPMS liquid formulation measured for 24 hrs by UPLC-MS/MS analysis; format: ADME, organism-based; parameters: route oral, time 24 hrs, dose 9.6 mg/kg
measurement-name: AUC(0-t) at 24 h

Exercise: Reported AUC(0-t) at 24 h for CC[C@@H]1CN2CCc3c([nH]c4cccc(OC)c34)[C@@H]2C[C@@H]1/C(=C\OC)C(=O)OC : what is it?
Solution: 1310 ng·h/mL

---

assay: Drug uptake in Sprague-Dawley rat plasma at 1.23 mg/kg, po administered as OPMS liquid formulation measured within 1 hrs by UPLC-MS/MS analysis; type: ADME, organism-based
measurement-name: concentration at 1 h

Exercise: Reported concentration at 1 h, molecule CC[C@H]1CN2CCc3c([nH]c4cccc(OC)c34)[C@@H]2C[C@@H]1/C(=C\OC)C(=O)OC : ____
Solution: < 1 ng/mL

---

assay: AUC(0 to 24 hrs) in Sprague-Dawley rat plasma at 0.13 mg/kg, po administered as LKT formulation measured for 24 hrs by UPLC-MS/MS analysis; assay type: ADME, organism-based; design: route oral, time 24 hrs, dose 0.13 mg/kg
measurement-name: AUC(0-t) at 24 h (ng·h/mL)
Numeric only. Scale: ng·h/mL

Exercise: State the recorded AUC(0-t) at 24 h for this entry: CC[C@@H]1CN2CCc3c([nH]c4ccccc34)[C@@H]2C[C@@H]1/C(=C\OC)C(=O)OC
Solution: 8.2

---

assay: Tmax in Sprague-Dawley rat plasma at 5.73 mg/kg, po administered as LKT formulation measured for 24 hrs by UPLC-MS/MS analysis; format: ADME, organism-based
measurement-name: Tmax (h)
Please reply with the bare figure in h and do not write the unit itself.

Exercise: Recorded Tmax for CC[C@@H]1CN2CCc3c([nH]c4cccc(OC)c34)[C@@H]2C[C@@H]1/C(=C\OC)C(=O)OC , please?
Solution: 1.3

---

experiment: Cmax in Sprague-Dawley rat plasma at 1.77 mg/kg, po administered as OPMS liquid formulation measured for 24 hrs by UPLC-MS/MS analysis; assay type: ADME, organism-based; parameters: route oral, time 24 hrs, dose 1.77 mg/kg
measurement-name: Cmax (ng/mL)
Form entry: value (ng/mL) — number only.

Exercise: Please report the recorded Cmax for C=C[C@H]1CN2CCc3c([nH]c4cccc(OC)c34)[C@@H]2C[C@@H]1/C(=C\OC)C(=O)OC .
Solution: 2

---

experiment: Tmax in Sprague-Dawley rat plasma at 2.24 mg/kg, po administered as OPMS liquid formulation measured for 24 hrs by UPLC-MS/MS analysis; assay type: ADME, organism-based
measurement-name: Tmax (h)
Note: unit h is implicit; provide only the numeric part.

Exercise: What value of Tmax has been reported for the following compound? CC[C@@H]1CN2CCc3c([nH]c4cccc(OC)c34)[C@H]2C[C@@H]1/C(=C\OC)C(=O)OC
Solution: 3.2

---

experiment: Cmax in Sprague-Dawley rat plasma at 0.79 mg/kg, po administered as LKT formulation measured for 24 hrs by UPLC-MS/MS analysis; format: ADME, organism-based; parameters: route oral, time 24 hrs, dose 0.79 mg/kg
measurement-name: Cmax (ng/mL)
Express your answer in ng/mL, writing the number without its unit.

Exercise: Bench note: what Cmax did CC[C@H]1CN2CCc3c([nH]c4cccc(OC)c34)[C@@H]2C[C@@H]1/C(=C\OC)C(=O)OC show?
Solution: 2.9

---

assay: Cmax in Sprague-Dawley rat plasma at 5.73 mg/kg, po administered as LKT formulation measured for 24 hrs by UPLC-MS/MS analysis; type: ADME, organism-based; set-up: route oral, dose 5.73 mg/kg, time 24 hrs
measurement-name: Cmax (ng/mL)
Answer in ng/mL, number only, no unit symbol.

Exercise: Given the entry CC[C@@H]1CN2CCc3c([nH]c4cccc(OC)c34)[C@@H]2C[C@@H]1/C(=C\OC)C(=O)OC , report its measured Cmax.
Solution: 63.8

---

assay: AUC(0 to 24 hrs) in Sprague-Dawley rat plasma at <0.1 mg/kg, po administered as LKT formulation measured for 24 hrs by UPLC-MS/MS analysis; format: ADME, organism-based; set-up: route oral, time 24 hrs, dose <0.1
measurement-name: AUC(0-t) at 24 h (ng·h/mL)
Reply numerically in ng·h/mL, unit not repeated.

Exercise: So what does the record say about AUC(0-t) at 24 h for CC[C@@H]1CN2CC[C@@]3(O)C(=Nc4cccc(OC)c43)[C@@H]2C[C@@H]1/C(=C\OC)C(=O)OC ?
Solution: 17.4

---

experiment: Tmax in Sprague-Dawley rat plasma at 2.03 mg/kg, po administered as LKT formulation measured for 24 hrs by UPLC-MS/MS analysis; assay type: ADME, organism-based
measurement-name: Tmax (h)
Response body: numeric value in h, unit text excluded.

Exercise: Dear colleague, I am looking for the recorded Tmax of the following compound: CC[C@@H]1CN2CCc3c([nH]c4cccc(OC)c34)[C@H]2C[C@@H]1/C(=C\OC)C(=O)OC
Solution: 1.8

---

assay: Drug uptake in Sprague-Dawley rat plasma at 0.79 mg/kg, po administered as LKT formulation measured within 1 hrs by UPLC-MS/MS analysis; type: ADME, organism-based
measurement-name: concentration at 1 h

Exercise: Would you mind telling me what concentration at 1 h value was observed for CC[C@H]1CN2CCc3c([nH]c4cccc(OC)c34)[C@@H]2C[C@@H]1/C(=C\OC)C(=O)OC ?
Solution: < 1 ng/mL

---

assay: Tmax in Sprague-Dawley rat plasma at 1.1 mg/kg, po administered as LKT formulation measured for 24 hrs by UPLC-MS/MS analysis; assay type: ADME, organism-based
measurement-name: Tmax

Exercise: Reported Tmax, compound C=C[C@H]1CN2CCc3c([nH]c4cccc(OC)c34)[C@@H]2C[C@@H]1/C(=C\OC)C(=O)OC : ____
Solution: 10 min

---

experiment: AUC(0 to 24 hrs) in Sprague-Dawley rat plasma at 5.73 mg/kg, po administered as LKT formulation measured for 24 hrs by UPLC-MS/MS analysis; assay type: ADME, organism-based; design: route oral, time 24 hrs, dose 5.73 mg/kg
measurement-name: AUC(0-t) at 24 h (ng·h/mL)
Write the value in ng·h/mL as a bare number.

Exercise: For CC[C@@H]1CN2CCc3c([nH]c4cccc(OC)c34)[C@@H]2C[C@@H]1/C(=C\OC)C(=O)OC , what is its reported AUC(0-t) at 24 h?
Solution: 480

---

test: Cmax in Sprague-Dawley rat plasma at 9.6 mg/kg, po administered as OPMS liquid formulation measured for 24 hrs by UPLC-MS/MS analysis; type: ADME, organism-based; design: route oral, dose 9.6 mg/kg, time 24 hrs
measurement-name: Cmax (ng/mL)
Unit ng/mL implied. Number only.

Exercise: Report Cmax for CC[C@@H]1CN2CCc3c([nH]c4cccc(OC)c34)[C@@H]2C[C@@H]1/C(=C\OC)C(=O)OC please.
Solution: 112

---

test: AUC(0 to 24 hrs) in Sprague-Dawley rat plasma at 2.03 mg/kg, po administered as LKT formulation measured for 24 hrs by UPLC-MS/MS analysis; format: ADME, organism-based; design: route oral, time 24 hrs, dose 2.03 mg/kg
measurement-name: AUC(0-t) at 24 h (µg·h/mL)
Write the number in µg·h/mL without appending the unit.

Exercise: Would you kindly share the measured AUC(0-t) at 24 h for CC[C@@H]1CN2CCc3c([nH]c4cccc(OC)c34)[C@H]2C[C@@H]1/C(=C\OC)C(=O)OC ?
Solution: 0.107
